Reported values of combination Emax for individual entries
- System: PC-14 (Lung Adenocarcinoma)
- assay details: combination Emax (second highest fraction inhibited in the dose matrix, 72 h); higher = more inhibition; extreme values may be limits of the assay

molecule	combination Emax
CS(=O)(=O)CCNCc1ccc(-c2ccc3ncnc(Nc4ccc(OCc5cccc(F)c5)c(Cl)c4)c3c2)o1 [Lapatinib] + C[C@@H](Oc1cc(-c2cnn(C3CCNCC3)c2)cnc1N)c1c(Cl)ccc(F)c1Cl [Crizotinib] (first compound max 10 µM, 7x7, partner max 10 µM)	1
C[C@@H](Nc1cc(F)cc(F)c1)c1cc(C(=O)N(C)C)cc2c(=O)cc(N3CCOCC3)oc12 [AZD8186] + CC(=O)c1c(C)c2cnc(Nc3ccc(N4CCNCC4)cn3)nc2n(C2CCCC2)c1=O [Palbociclib] (first compound max 10 µM, 7x7, partner max 10 µM)	0.469

* * *

- Test system: CHL-1 (Melanoma)
- assay details: Bliss excess, mean over the matrix (fraction); higher = more synergy

compound	Bliss excess
Cc1c2c(nn1C)CSCc1cc(n(C)n1)CSc1cc(c3ccccc3c1)OCCCc1c(C(=O)O)n(C)c3c-2c(Cl)ccc13 [AZD5991] + CCN(CCO)CCCOc1ccc2c(Nc3cc(CC(=O)Nc4cccc(F)c4)[nH]n3)ncnc2c1 [AZD2811] (first compound max 1 µM, 7x7, partner max 1 µM)	0.114
CN(CCO)CC[C@H](CSc1ccccc1)Nc1ccc(S(=O)(=O)NC(=O)c2ccc(N3CCC([C@@H](O)c4ccccc4-c4ccc(Cl)cc4)CC3)cc2)cc1S(=O)(=O)C(F)(F)F [AZD4320] + CCN(CCO)CCCOc1ccc2c(Nc3cc(CC(=O)Nc4cccc(F)c4)[nH]n3)ncnc2c1 [AZD2811] (first compound max 1 µM, 7x7, partner max 1 µM)	0.133
Cc1cc2ncnn2cc1Nc1ncc2c(n1)n(C1CCOCC1)c(=O)n2C [AZD7648] + CN(C)CCCOc1ccc(-c2ccc3ncc4c(c3c2)n(C2CCOCC2)c(=O)n4C)cn1 [AZD0156] (first compound max 10 µM, 7x7, partner max 1 µM)	0.0169
CC(=O)c1c(C)c2cnc(Nc3ccc(N4CCNCC4)cn3)nc2n(C2CCCC2)c1=O [Palbociclib] + Cc1c2c(nn1C)CSCc1cc(n(C)n1)CSc1cc(c3ccccc3c1)OCCCc1c(C(=O)O)n(C)c3c-2c(Cl)ccc13 [AZD5991] (first compound max 10 µM, 7x7, partner max 1 µM)	0.0344
CN(CCO)CC[C@H](CSc1ccccc1)Nc1ccc(S(=O)(=O)NC(=O)c2ccc(N3CCC([C@@H](O)c4ccccc4-c4ccc(Cl)cc4)CC3)cc2)cc1S(=O)(=O)C(F)(F)F [AZD4320] + Nc1ccn([C@@H]2O[C@H](CO)[C@@H](O)C2(F)F)c(=O)n1 [Gemcitabine] (first compound max 1 µM, 7x7, partner max 0.3 µM)	0.0768
COc1cccc(OCCCN)c1-c1cc(Nc2cnc(C#N)cn2)n[nH]1 [Prexasertib] + C=CCn1c(=O)c2cnc(Nc3ccc(N4CCN(C)CC4)cc3)nc2n1-c1cccc(C(C)(C)O)n1 [AZD1775] (first compound max 1 µM, partner max 1 µM)	0.0485
CCc1c2c(nc3ccc(O)cc13)-c1cc3c(c(=O)n1C2)COC(=O)[C@]3(O)CC [SN-38] + O=C(c1cc(Cc2n[nH]c(=O)c3ccccc23)ccc1F)N1CCN(C(=O)C2CC2)CC1 [Olaparib] (first compound max 0.3 µM, 7x7, partner max 10 µM)	0.0683
Cc1cc2ncnn2cc1Nc1ncc2c(n1)n(C1CCOCC1)c(=O)n2C [AZD7648] + CCN(CCO)CCCOc1ccc2c(Nc3cc(CC(=O)Nc4cccc(F)c4)[nH]n3)ncnc2c1 [AZD2811] (first compound max 10 µM, 7x7, partner max 1 µM)	0.0203
COc1cccc(OCCCN)c1-c1cc(Nc2cnc(C#N)cn2)n[nH]1 [Prexasertib] + CCc1c2c(nc3ccc(O)cc13)-c1cc3c(c(=O)n1C2)COC(=O)[C@]3(O)CC [SN-38] (first compound max 1 µM, 7x7, partner max 0.3 µM)	0.0254
CCN(CCO)CCCOc1ccc2c(Nc3cc(CC(=O)Nc4cccc(F)c4)[nH]n3)ncnc2c1 [AZD2811] + C[C@@H]1COCCN1C2=NC(=NC(=C2)C3(CC3)[S@](=N)(=O)C)C4=C5C=CNC5=NC=C4 [AZD6738] (first compound max 1 µM, 7x7, partner max 10 µM)	-0.0344
Cc1cc2ncnn2cc1Nc1ncc2c(n1)n(C1CCOCC1)c(=O)n2C [AZD7648] + O=C(c1cc(Cc2n[nH]c(=O)c3ccccc23)ccc1F)N1CCN(C(=O)C2CC2)CC1 [Olaparib] (first compound max 10 µM, 7x7, partner max 10 µM)	-0.0266

* * *

- Test system: NCI-H810 (Non-Small Cell Lung Carcinoma)
- assay details: combination Emax (second highest fraction inhibited in the dose matrix, 72 h); higher = more inhibition; extreme values may be limits of the assay
metric: combination Emax

molecule	measured
Cn1cnc2c(F)c(Nc3ccc(Br)cc3Cl)c(C(=O)NOCCO)cc21 [Selumetinib] + CCN(CCO)CCCOc1ccc2c(Nc3cc(CC(=O)Nc4cccc(F)c4)[nH]n3)ncnc2c1 [AZD2811] (first compound max 10 µM, 7x7, partner max 1 µM)	0.444
CC1(C)CCC(CN2CCN(c3ccc(C(=O)NS(=O)(=O)c4ccc(NCC5CCOCC5)c([N+](=O)[O-])c4)c(Oc4cnc5[nH]ccc5c4)c3)CC2)=C(c2ccc(Cl)cc2)C1 [Venetoclax] + Cn1cnc2c(F)c(Nc3ccc(Br)cc3Cl)c(C(=O)NOCCO)cc21 [Selumetinib] (first compound max 1 µM, 7x7, partner max 3 µM)	0.0631
Cc1c2c(nn1C)CSCc1cc(n(C)n1)CSc1cc(c3ccccc3c1)OCCCc1c(C(=O)O)n(C)c3c-2c(Cl)ccc13 [AZD5991] + CC1(C)CCC(CN2CCN(c3ccc(C(=O)NS(=O)(=O)c4ccc(NCC5CCOCC5)c([N+](=O)[O-])c4)c(Oc4cnc5[nH]ccc5c4)c3)CC2)=C(c2ccc(Cl)cc2)C1 [Venetoclax] (first compound max 1 µM, 7x7, partner max 1 µM)	0.533

* * *

- System: LAMA-84 (Chronic Myelogenous Leukemia)
- assay details: Bliss excess, mean over the matrix (fraction); higher = more synergy
Assign class by Bliss excess: not lower than -0.006 means y; lower than -0.006 means n.

molecule	category label
C[C@@H]1COCCN1c1cc(C2([S@](C)(=N)=O)CC2)nc(-c2ccnc3[nH]ccc23)n1 [AZD6738] + C1CC(C1)(C(=O)[O-])C(=O)[O-].N.N.[Pt+2] [Carboplatin] (first compound max 10 µM, 7x7, partner max 10 µM)	n
Cc1c2c(nn1C)CSCc1cc(n(C)n1)CSc1cc(c3ccccc3c1)OCCCc1c(C(=O)O)n(C)c3c-2c(Cl)ccc13 [AZD5991] + C[C@@H]1COCCN1C2=NC(=NC(=C2)C3(CC3)[S@](=N)(=O)C)C4=C5C=CNC5=NC=C4 [AZD6738] (first compound max 1 µM, 7x7, partner max 10 µM)	y
O=C(c1cc(Cc2n[nH]c(=O)c3ccccc23)ccc1F)N1CCN(C(=O)C2CC2)CC1 [Olaparib] + CN(CC[C@H](CSC1=CC=CC=C1)NC2=C(C=C(C=C2)S(=O)(=O)NC(=O)C3=CC=C(C=C3)N4CCC(CC4)[C@H](C5=CC=CC=C5C6=CC=C(C=C6)Cl)O)S(=O)(=O)C(F)(F)F)CCO [AZD4320] (first compound max 10 µM, 7x7, partner max 1 µM)	n
Cc1c2c(nn1C)CSCc1cc(n(C)n1)CSc1cc(c3ccccc3c1)OCCCc1c(C(=O)O)n(C)c3c-2c(Cl)ccc13 [AZD5991] + C=CCn1c(=O)c2cnc(Nc3ccc(N4CCN(C)CC4)cc3)nc2n1-c1cccc(C(C)(C)O)n1 [AZD1775] (first compound max 1 µM, partner max 1 µM)	y
C[C@@H](Nc1cc(F)cc(F)c1)c1cc(C(=O)N(C)C)cc2c(=O)cc(N3CCOCC3)oc12 [AZD8186] + CC(=O)c1c(C)c2cnc(Nc3ccc(N4CCNCC4)cn3)nc2n(C2CCCC2)c1=O [Palbociclib] (first compound max 10 µM, 7x7, partner max 10 µM)	y
COc1cccc(OCCCN)c1-c1cc(Nc2cnc(C#N)cn2)n[nH]1 [Prexasertib] + CCc1c2c(nc3ccc(O)cc13)-c1cc3c(c(=O)n1C2)COC(=O)[C@]3(O)CC [SN-38] (first compound max 1 µM, 7x7, partner max 0.3 µM)	n
Cc1nc(Nc2ncc(C(=O)Nc3c(C)cccc3Cl)s2)cc(N2CCN(CCO)CC2)n1 [Dasatinib] + CC(=O)Nc1cccc(-n2c(=O)n(C3CC3)c(=O)c3c(Nc4ccc(I)cc4F)n(C)c(=O)c(C)c32)c1 [Trametinib] (first compound max 2 µM, 7x7, partner max 1 µM)	y

* * *

- Tested on: SJRH30 (Rhabdomyosarcoma)
- assay details: Bliss excess, mean over the matrix (fraction); higher = more synergy
Assign class by Bliss excess: not lower than 0.009 means met; lower than 0.009 means not met.

molecule	category label
CN(CCO)CC[C@H](CSc1ccccc1)Nc1ccc(S(=O)(=O)NC(=O)c2ccc(N3CCC([C@@H](O)c4ccccc4-c4ccc(Cl)cc4)CC3)cc2)cc1S(=O)(=O)C(F)(F)F [AZD4320] + C1CN(CCC1(C(=O)N[C@@H](CCO)C2=CC=C(C=C2)Cl)N)C3=NC=NC4=C3C=CN4 [Capivasertib] (first compound max 1 µM, 7x7, partner max 3 µM)	not met
COc1nnc2ccc(N3CCC(c4ccc(OCCN5CCN(C)C(=O)[C@H]5C)cc4)CC3)nn12 [AZD5153] + Cc1c2c(nn1C)CSCc1cc(n(C)n1)CSc1cc(c3ccccc3c1)OCCCc1c(C(=O)O)n(C)c3c-2c(Cl)ccc13 [AZD5991] (first compound max 1 µM, 7x7, partner max 1 µM)	not met
COc1cc2ncnc(Nc3ccc(F)c(Cl)c3)c2cc1OCCCN1CCOCC1 [Gefitinib] + CC(C)n1c(=O)n(C)c2cnc3cc(F)c(-c4ccc(OCCCN5CCCCC5)nc4)cc3c21 [AZD1390] (first compound max 10 µM, 7x7, partner max 0.3 µM)	not met
COc1nnc2ccc(N3CCC(c4ccc(OCCN5CCN(C)C(=O)[C@H]5C)cc4)CC3)nn12 [AZD5153] + Cn1cnc2c(F)c(Nc3ccc(Br)cc3Cl)c(C(=O)NOCCO)cc21 [Selumetinib] (first compound max 1 µM, 7x7, partner max 10 µM)	met
NC1(C(=O)N[C@@H](CCO)c2ccc(Cl)cc2)CCN(c2ncnc3[nH]ccc23)CC1 [Capivasertib] + Cn1cnc2c(F)c(Nc3ccc(Br)cc3Cl)c(C(=O)NOCCO)cc21 [Selumetinib] (first compound max 10 µM, 7x7, partner max 10 µM)	met
